- protocol notes: Electrochemical properties (onset oxidation/reduction potentials, HOMO, LUMO, gap)
- Format: physicochemical
- measurement conditions: HOMO-LUMO gap

# molecule, Eg (eV)
records = [
    ("Cc1cccc(C)c1C(=O)OC12c3c4c5c6c7c8c(c9c%10c1c1c%11c3c3c%12c4c4c6c6c7c7c%13c8c9c8c9c%10c1c1c%10c%11c3c3c%11c%12c4c4c6c6c7c7c%13c8c8c9c1c1c%10c3c3c%11c4c6c4c7c8c1c34)C52OC[Si](C)(C)c1ccccc1 (stereo not shown) [Formula 1b]", 2.25),
    ("Cc1cccc(C)c1C(=O)OC12c3c4c5c6c7c8c(c9c%10c1c1c%11c3c3c%12c4c4c6c6c7c7c%13c8c9c8c9c%10c1c1c%10c%11c3c3c%11c%12c4c4c6c6c7c7c%13c8c8c9c1c1c%10c3c3c%11c4c6c4c7c8c1c34)C52O[Si](C)(C)c1ccccc1 (stereo not shown) [Formula 1a]", 2.41),
    ("Cc1cccc(C)c1C(=O)OC12c3c4c5c6c7c8c(c9c%10c1c1c%11c3c3c%12c4c4c6c6c7c7c%13c8c9c8c9c%10c1c1c%10c%11c3c3c%11c%12c4c4c6c6c7c7c%13c8c8c9c1c1c%10c3c3c%11c4c6c4c7c8c1c34)C52O[Si](C)(C)C(C)(C)C (stereo not shown) [Formula 1d]", 2.22),
    ("CCCC[Si](C)(C)OC12c3c4c5c6c7c8c(c9c%10c1c1c%11c3c3c%12c4c4c6c6c7c7c%13c8c9c8c9c%10c1c1c%10c%11c3c3c%11c%12c4c4c6c6c7c7c%13c8c8c9c1c1c%10c3c3c%11c4c6c4c7c8c1c34)C52OC(=O)c1c(C)cccc1C (stereo not shown) [Formula 1c]", 2.29),
]
